- subject_of_test: T1, RBFOX1 RRM RbFoxmut (Fox-RRM*) (Homo sapiens, UniProt Q9NWB1 109-208, R118D;E147R;N151S;E152T)
- T1 sequence: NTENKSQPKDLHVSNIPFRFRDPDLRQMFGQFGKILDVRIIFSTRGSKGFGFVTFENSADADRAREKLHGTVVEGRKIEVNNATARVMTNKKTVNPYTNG
- run_description: EMSA; HiTS-Eq, 1 nM pool, 10 min; buffer printed only for the single-RNA assays: 10 mM Tris pH 7.5, 150 mM NaCl, 3.4 mM EDTA, 0.001% NP-40, 30 C
- condition_context: tags: His6 N-terminal (pET28a); label: 5' 32P
Whole data set: some 16,000 sequences, median “ka relative to ugcaugu” near 0.096, cut for the highest 2% near 0.35. This excerpt belongs to a sample that is enriched for the highest values.
Catalogue of binding signal readings, one per entry.

{"binder": "GACCGUC (DNA:RNA) RNA: GGGAGACCGGAAUUCAGAUUGUCCGACCGUCUUAAAUCCCGUCGUAGCCACCA DNA 1: CAATCTGAATTCCGGTCTCCC DNA 2: TGGTGGCTACGACGGGATT", "binding signal": "0.0863 KA relative to UGCAUGU"}
{"binder": "GCCUUGG (DNA:RNA) RNA: GGGAGACCGGAAUUCAGAUUGUCCGCCUUGGUUAAAUCCCGUCGUAGCCACCA DNA 1: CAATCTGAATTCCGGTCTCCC DNA 2: TGGTGGCTACGACGGGATT", "binding signal": "0.501 KA relative to UGCAUGU"}
{"binder": "AGCCUUG (DNA:RNA) RNA: GGGAGACCGGAAUUCAGAUUGUCCAGCCUUGUUAAAUCCCGUCGUAGCCACCA DNA 1: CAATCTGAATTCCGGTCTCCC DNA 2: TGGTGGCTACGACGGGATT", "binding signal": "0.576 KA relative to UGCAUGU"}

# evaluate next
Query (binder): GCCCGCC (DNA:RNA) RNA: GGGAGACCGGAAUUCAGAUUGUCCGCCCGCCUUAAAUCCCGUCGUAGCCACCA DNA 1: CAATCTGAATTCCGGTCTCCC DNA 2: TGGTGGCTACGACGGGATT ; field requested: binding signal 0.0938 KA relative to UGCAUGU
